- Assayed system: Levetiracetam Binding Site (LBS), rat cerebral cortex membranes (Rattus norvegicus, UniProt Q02563)
- Construct: The crude membrane pellet obtained is resuspended in 50 mmol/l Tris-HCl (pH 7.4); from tissue; host or cells: rat cerebral cortex crude membranes (male Sprague-Dawley)
- Sequence (Q02563 whole entry): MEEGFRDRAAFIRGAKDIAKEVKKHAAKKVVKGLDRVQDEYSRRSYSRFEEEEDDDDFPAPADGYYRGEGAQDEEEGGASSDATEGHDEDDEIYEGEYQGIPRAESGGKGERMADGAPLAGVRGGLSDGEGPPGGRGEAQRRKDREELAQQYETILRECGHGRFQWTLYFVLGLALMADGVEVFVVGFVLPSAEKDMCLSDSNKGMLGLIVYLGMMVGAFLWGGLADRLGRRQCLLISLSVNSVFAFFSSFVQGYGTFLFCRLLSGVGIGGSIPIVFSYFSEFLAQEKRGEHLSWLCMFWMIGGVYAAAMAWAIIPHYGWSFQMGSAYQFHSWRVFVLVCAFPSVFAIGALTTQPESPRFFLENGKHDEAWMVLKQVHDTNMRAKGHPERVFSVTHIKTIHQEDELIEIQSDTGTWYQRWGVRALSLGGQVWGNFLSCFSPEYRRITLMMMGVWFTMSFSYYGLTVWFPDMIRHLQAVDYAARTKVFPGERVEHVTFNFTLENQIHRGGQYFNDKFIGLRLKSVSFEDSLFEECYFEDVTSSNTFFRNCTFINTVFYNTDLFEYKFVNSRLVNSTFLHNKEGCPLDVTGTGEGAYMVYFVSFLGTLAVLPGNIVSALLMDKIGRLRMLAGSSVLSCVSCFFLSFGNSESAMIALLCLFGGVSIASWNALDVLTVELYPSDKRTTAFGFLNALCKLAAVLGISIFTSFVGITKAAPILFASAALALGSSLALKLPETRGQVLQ
- Protocol notes: LBS binding assay (competitive binding, [3H]-2-[4-(3-azidophenyl)-2-oxo-1-pyrrolidinyl]butanamide)
- Assay conditions: 4° C., 120 min
Parameter measured: pKi (affinity for the levetiracetam binding site)

Compound	Reported measurement
CCC(C(N)=O)N1CC(c2cccc(Cl)c2)CC1=O (stereo not drawn) [Compound 205]	Particular affinity
CCCC1CC(=O)N(C(CCC)C(N)=O)C1 (stereo not drawn)	Particular affinity
CC[C@@H](C(N)=O)N1CC(CC(C)I)CC1=O (stereo partly drawn) [Compound 226]	Particular affinity
